The measured values listed here are drawn from PubChem BioAssay AID1063.

Kindly supply the reported inhibition values for the records listed here.
- ASSAY_REMARKS: Leishmania major promastigote growth inhibition, primary screen (AID 1063);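 also: promastigotes grown with compound for 44 hours at 28 °C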
- TEST_CONTEXT: Leishmania major promastigotes, resazurin fluorescence viability; at 10 µM; active compounds read high
Among all 200,000 compounds or so, about 18,000 (9%) were called active. Many of the other results were omitted from the sample, so actives are more common in it than they were.
One number for each entry, in %.

MOLECULE: CSc1ccccc1C(=O)NCc1ccccc1
MEASURED_RESULT: -0.25

List reported inhibition for each of these molecules:
1. COc1ccc(Cn2c(=O)cc(C)[nH]c2=S)cc1
2. O=C(O)CSc1nnc(-c2ccc3c(c2)OCO3)n1-c1ccccc1
3. CCOC(=O)N1CCN(C(=O)c2cc3c(-c4ccc(Cl)cc4)nn(C)c3s2)CC1

1. -4.72
2. -2.94
3. 10.6

Hi there! I need inhibition for each item below, if you can.
1. O=C(CP(=O)(c1ccccc1)c1ccccc1)N1CCOCC1
2. COc1ccc(CN2CN(C(C)C)CSC2=S)cc1
3. CC(=O)Nc1ccc(NC(=S)NC(=O)/C=C/c2ccccc2)cc1
4. O=C(c1cn(-c2ccccc2)nc1-c1cccnc1)N1CCCCC1
5. N#CC1=C(N)Oc2c(sc3ccccc23)C1c1ccco1 (stereo not given)

[-9.31, 96.4, -1.29, -1.11, 9.33]

Could you report inhibition for every entry in the following list?
1. CC(C)(C)OC(=O)N/N=C/c1cn(-c2ccccc2)nc1-c1cccnc1
2. Cc1ccc(NC(=O)c2ccccn2)cc1S(=O)(=O)N1CCOCC1

1. 21.8
2. -1.09
